Molecular target: UniProt O15244
Sequence (O15244 1-555): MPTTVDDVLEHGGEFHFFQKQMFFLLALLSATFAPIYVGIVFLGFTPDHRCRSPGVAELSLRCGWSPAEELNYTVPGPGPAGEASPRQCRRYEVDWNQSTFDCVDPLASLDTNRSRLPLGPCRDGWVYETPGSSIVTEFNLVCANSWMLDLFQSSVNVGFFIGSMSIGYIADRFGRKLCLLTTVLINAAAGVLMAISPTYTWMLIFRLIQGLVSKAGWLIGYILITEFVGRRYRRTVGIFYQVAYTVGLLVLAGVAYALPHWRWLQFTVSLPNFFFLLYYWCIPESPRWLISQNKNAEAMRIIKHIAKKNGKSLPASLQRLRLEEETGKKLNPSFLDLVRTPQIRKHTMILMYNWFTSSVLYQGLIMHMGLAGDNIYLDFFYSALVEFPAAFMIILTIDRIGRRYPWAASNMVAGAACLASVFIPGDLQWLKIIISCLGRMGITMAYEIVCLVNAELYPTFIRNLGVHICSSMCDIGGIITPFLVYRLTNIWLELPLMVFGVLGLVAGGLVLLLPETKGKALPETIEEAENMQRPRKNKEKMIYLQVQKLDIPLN
Result Type: pIC50
In simple prose, pIC50 is minus the logarithm base ten of a concentration in moles per litre.

Observed pIC50 on UniProt O15244, entry CCCc1nn(C)c2c(=O)[nH]c(-c3cc(S(=O)(=O)N4CCN(C)CC4)ccc3OCC)nc12 , equals 4.17

Measured pIC50 (UniProt O15244), entry N#CC[C@H](C1CCCC1)n1cc(-c2ncnc3[nH]ccc23)cn1 : 4.97

Observed pIC50, UniProt O15244, CCOC(=O)c1c(CSc2ccccc2)n(C)c2cc(Br)c(O)c(CN(C)C)c12 : 4.83
